- target-desc: T1, TRBC2 peptide (biotinylated) (human, also: biotinylated (site not given here))
- T1 construct: In the monoclonal screen: biotinylated, 0.5 ug/ml on neutravidin-coated plates; In the polyclonal phage ELISA also presented as BSA or OA conjugate of the C-terminal-cysteine form; also called Bio-TRBC2; biotinylated TRBC2
- T1 peptide: VLEDLKNVFPPEVAV
- method-notes: TRF assay, scFv on biotin-peptide/neutravidin plate
- From the text: The scFv populations from round-2 and round-3 selection outputs were sub-cloned into the pSANG10-3F expression vector and transformed into E. coli BL21 (DE3) cells. 1128 individual transformants (564 clones/TRBC peptide) were picked into 12×96 well culture plates (94 clones/plate) and antibody expression was induced using autoinduction media. […]
No end group written: not given here.
Overview of reported TRBC2 binding across a group of binders:
Number only, in TRF units; omit the unit.

These solved cases illustrate the format of a correct answer.
CP_03_F09 (scFv, not shown: small tags and cut ends, scFv from pSANG10-3F (His6, tri-FLAG), culture supernatant) scFv: QMQLVQSGAEVKKPGASVKVSCKASGYTFASYYMHWVRQAPGQGLEWMGIINPSGGSTSYAQKFQGRVTMTRDTSTSTVYMELSRLRSDDTAVYYCASNRGGSYKSVGMDVWGQGTTVTVSSGGGGSGGGGSGGGASNFMLTQPQSVSESPGKTVTISCTRSSGNFASKYVQWYQQRPGSSPTTVIYENYQRPSGVPDRFSGSIDSSSNSATLTISGLKTEDEADYYCQSYDEVSVVFGGGTQLTVLGQPAA :: 132000
CP_03_E05 (scFv, not shown: small tags and cut ends, scFv from pSANG10-3F (His6, tri-FLAG), culture supernatant) scFv: EVQLVESGGGVVQPGGSLRLSCAASGFTFSSYAMSWVRQAPGKGLEWVSAISGSGGSTYYADSVKGRFSISRDNSKNTLYLQMNSLRAEDTAVYYCARTRSSGAFDIWGQGTLVTVSSGGGGSGGGGSGGGASNFMLTQPHSVSESPGKTVTISCTRSSGSIASKYVQWYQQRPGSSPTTVIYEDNQRPSGVPDRFSGSIDTSSNSASLTISGLRTEDEADYYCHSYDSNNHSVFGGGTKVTVLGQPAA :: 217000

Prompt: Provide measured TRBC2 binding value, entry: CP_03_D09 (scFv, not shown: small tags and cut ends, scFv from pSANG10-3F (His6, tri-FLAG), culture supernatant) scFv: EVQLVQSGAEVKKPGSSVKVSCEASGYTFTSYAISWVRQAPGQGLEWMGWMNPNSGNTGYAQKFQGRVTMTRNTSISTAYMELSSLRSEDTAVYYCARVSSYYGMDVWGQGTLVTVSSGGGGSGGGGSGGGASNFMLTQPLSVSESPGKTVTISCTRSSGSIASNYVQWYQQRPGSAPTTVIYEDNQRPSGVPDRFSGSIDSSSNSASLTISGLKTEDEADYYCQSYNSSNHWVFGGGTKVTVLGQPAA
Response: 129000

Data provenance is patent US20250314655A1.
